Test system: human lymphocytes
experimental-details: Human mixed lymphocyte reaction (allogeneic stimulation)
Type: cell-based
condition-details: allogeneic stimuli (mixed lymphocyte reaction), harvested 120 hours, FIG. 7B; read-out: apparent IC50
pIC50: −log10 of the molar value.
parameter-measured: pIC50

* COc1ccc(NC(=O)c2ccc(-c3ccc(-c4noc(C)n4)cc3C)cc2)cc1OCCN(C)C | ~7.30
